System: DLD1
assay info: cell viability (CellTiter-Glo) relative to plate median (fraction of plate median); higher = more viable cells
test parameters: 5 µM; treatment time 24 h; reporter: 7TFP
quantity measured: cell viability
Simply state the number, no unit and no words.

Exam item: Need cell viability, item C[C@@H]1O[C@H]2O[C@@H]3[C@@H](C)OC(c4ccc5c(c4O)C(=O)c4ccc(C[C@@](C)(O)CC(=O)O)c(O)c4C5=O)C[C@H]3O[C@H]2CC1=O (stereo not given in full)
Marked response: 1.14

Exam item: Need cell viability of O=C1C[C@@H](c2ccc(O)cc2)Oc2cc(O)cc(O)c21 , thanks.
Marked response: 1.04

Exam item: Give its cell viability value. Item: N[C@@H](CCC(=O)N[C@@H](CS)C(=O)NCC(=O)O)C(=O)O
Marked response: 1.03

Exam item: I am curious: what cell viability value has been reported for CC(=O)N(O)CCCCCNC(=O)CC(O)(CC(=O)NCCCCCN(O)C(C)=O)C(=O)O ?
Marked response: 0.989

Exam item: Please look up its cell viability: O=C(O)c1cccc(O)c1O
Marked response: 1.01

Exam item: Fill in: cell viability of CC(=O)NCCCCCC(=O)O is ___
Marked response: 0.987

Exam item: Consider the compound CC(=O)c1c(O)cc(O)cc1O and give its measured cell viability.
Marked response: 1.02

Exam item: // cell viability lookup, key: CCC(=O)OCC(=O)[C@@]1(OC(=O)CC)[C@@H](C)C[C@H]2[C@@H]3CCC4=CC(=O)C=C[C@]4(C)[C@@]3(F)[C@@H](O)C[C@@]21C
Marked response: 1.01

Exam item: Using the record for Cc1occc(=O)c1O , report its cell viability.
Marked response: 0.962

Exam item: Requested read-out: cell viability. Entry: COC(=O)Nc1nc2cc(Sc3ccccc3)ccc2[nH]1
Marked response: 1.01

* * *

System: SW480
assay info: TCF/Wnt firefly luciferase reporter signal relative to plate median (fraction of plate median); higher = higher Wnt reporter signal
test parameters: 5 µM; treatment time 24 h; reporter: 7TFP
Use 1 as the dividing line for TCF/Wnt firefly luciferase reporter signal, with the line itself on the YES side and lower values as NO.

Exam item: Quick check: does COC(=O)[C@@H]1OC(=O)[C@H]2O[C@@]23[C@@]1(C)CCC1[C@@]2(C)CCC(=O)C(C)(C)C2C[C@@H](OC(C)=O)[C@]13C (stereo partly drawn) have TCF/Wnt firefly luciferase reporter signal greater than or equal to 1?
Marked response: NO

Exam item: Textbook exercise: given the entry C[C@@H]1CCCCCCCCC[C@H](OC(=O)CCC(=O)O)C(=O)/C=C/C(=O)O1 , state whether its TCF/Wnt firefly luciferase reporter signal is greater than or equal to 1.
Marked response: YES

Exam item: Given the entry N[C@@H]1CONC1=O , answer whether its TCF/Wnt firefly luciferase reporter signal meets or surpasses 1.
Marked response: NO

Exam item: I'd appreciate it if you could say whether C[C@@H]1OC(=O)C2=C1O[C@@H]1[C@@H](O)[C@]3(O)CCCC[C@H]3[C@](C)(C2=O)[C@@H]1C [Dihydrotetrodecamycin] has TCF/Wnt firefly luciferase reporter signal at least equal to 1.
Marked response: YES

Exam item: Does the reported TCF/Wnt firefly luciferase reporter signal for CC(=O)OCC(=O)[C@@]1(O)[C@@H](C)C[C@H]2[C@@H]3CCC4=CC(=O)C=C[C@]4(C)[C@@]3(F)[C@@H](O)C[C@@]21C fall at or above the 1 mark?
Marked response: NO

* * *

Test system: SW480
assay info: TCF/Wnt firefly luciferase reporter signal relative to plate median (fraction of plate median); higher = higher Wnt reporter signal
test parameters: 5 µM; treatment time 24 h; reporter: 7TFP
Decide using TCF/Wnt firefly luciferase reporter signal: a value greater than or equal to 1 is Y, a smaller one is N.

Exam item: Can CC(=O)/C=C\[C@@H]1[C@@]2(C)CCCC(C)(C)C2CC[C@@]1(C)O (stereo not given in full) be said to have TCF/Wnt firefly luciferase reporter signal at or above 1?
Marked response: N

Exam item: Does the reported TCF/Wnt firefly luciferase reporter signal for CN(C)CC/C=C1/c2ccccc2Sc2ccc(Cl)cc21 fall at or above the 1 mark?
Marked response: N

Exam item: Item CC(C)NCC(O)COc1ccc(CC(N)=O)cc1 (stereo not given) with TCF/Wnt firefly luciferase reporter signal of 1 or above?
Marked response: Y

Exam item: Could you verify whether the entry CC(C)OC(=O)C(C)(C)Oc1ccc(C(=O)c2ccc(Cl)cc2)cc1 shows TCF/Wnt firefly luciferase reporter signal of no less than 1?
Marked response: N

Exam item: Say whether CC[N+](CC)(CC)CCOc1cccc(OCC[N+](CC)(CC)CC)c1OCC[N+](CC)(CC)CC shows TCF/Wnt firefly luciferase reporter signal of 1 or more.
Marked response: N

Exam item: Does the reported TCF/Wnt firefly luciferase reporter signal for C=CC(N)CCC(=O)O (stereo not given) fall at or above the 1 mark?
Marked response: Y

Exam item: Has CC1(C)S[C@@H]2[C@H](NC(=O)[C@H](NC(=O)N3CCNC3=O)c3ccccc3)C(=O)N2[C@H]1C(=O)O a recorded TCF/Wnt firefly luciferase reporter signal greater than or equal to 1?
Marked response: N

Exam item: Item COC(=O)CCCOc1ccc(Cl)cc1Cl with TCF/Wnt firefly luciferase reporter signal of 1 or above?
Marked response: N

* * *

Tested on: SW480
assay info: TCF/Wnt firefly luciferase reporter signal relative to plate median (fraction of plate median); higher = higher Wnt reporter signal
test parameters: 5 µM; treatment time 24 h; reporter: 7TFP
quantity measured: TCF/Wnt firefly luciferase reporter signal
Lab note: jot the number down without any unit.

Exam item: So what does the record say about TCF/Wnt firefly luciferase reporter signal for CC(=O)N[C@@H](CS)C(=O)O ?
Marked response: 1.07

Exam item: Returns the measured TCF/Wnt firefly luciferase reporter signal for the input compound. Input: O=C1O[C@H]([C@@H](O)CO)C(O)=C1O
Marked response: 0.969

Exam item: If you can, please state the reported TCF/Wnt firefly luciferase reporter signal value of CC1/C(=N/O)C[C@@H]2C[C@H]1C2(C)C (stereo partly drawn) .
Marked response: 0.919

Exam item: Entry under review: CC(=O)OCC(=O)[C@@]1(O)[C@H](C)C[C@H]2[C@@H]3CCC4=CC(=O)C=C[C@]4(C)[C@@]3(F)[C@@H](O)C[C@@]21C . Reported TCF/Wnt firefly luciferase reporter signal?
Marked response: 0.969

Exam item: Would you kindly share the measured TCF/Wnt firefly luciferase reporter signal for CC(=O)OCC(=O)[C@H]1CC[C@H]2[C@@H]3CC=C4C[C@@H](O)CC[C@]4(C)[C@H]3CC[C@]12C ?
Marked response: 0.975

Exam item: Can you look up the measured TCF/Wnt firefly luciferase reporter signal of C[C@]12CCC(=O)C=C1CC[C@@H]1[C@@H]2C(=O)C[C@@]2(C)[C@H]1CC[C@]2(O)C(=O)CO for me?
Marked response: 0.761

Exam item: For the compound Clc1ccccc1CN1CCc2sccc2C1 , what TCF/Wnt firefly luciferase reporter signal is on record?
Marked response: 1.01

Exam item: Returns the measured TCF/Wnt firefly luciferase reporter signal for the input compound. Input: C[C@H](CCC(=O)O)[C@H]1CC[C@H]2[C@@H]3[C@H](O)C[C@@H]4C[C@H](O)CC[C@]4(C)[C@H]3CC[C@]12C
Marked response: 1.1

Exam item: Name the reported TCF/Wnt firefly luciferase reporter signal value associated with the compound CN(C)CCOC(c1ccccc1)c1ccccc1.Cn1c(=O)c2[nH]c(Cl)nc2n(C)c1=O
Marked response: 1.12

Exam item: Query (compound): CCc1ccc2c(O)c3c(cc2c1C(=O)OC)C(=O)c1c(O)ccc(O)c1C3=O ; field requested: TCF/Wnt firefly luciferase reporter signal
Marked response: 0.967

Exam item: So what's the measured TCF/Wnt firefly luciferase reporter signal for this one? COc1cc(O)c(C(=O)/C=C/c2ccc(O)c(OC)c2)c(OC)c1
Marked response: 0.894

Exam item: What value of measured TCF/Wnt firefly luciferase reporter signal is listed for C/C=C/C/C=C/CCC(=O)[C@H]1O[C@H]1C(N)=O [Cerulenin] ?
Marked response: 0.993

Exam item: Please give the measured TCF/Wnt firefly luciferase reporter signal for this compound: O=c1c(-c2ccccc2)coc2cc(O)cc(O)c12
Marked response: 1.04

Exam item: // returns reported TCF/Wnt firefly luciferase reporter signal for input c1ccc([C@H]2CN3CCSC3=N2)cc1
Marked response: 0.947

Exam item: For CCc1ccc(CCOc2ccc(CC3SC(=O)NC3=O)cc2)nc1 (stereo not drawn) , what is its reported TCF/Wnt firefly luciferase reporter signal?
Marked response: 1.07

Exam item: Entry under review: CC(C)NCC(O)COc1ccc(COCCOC(C)C)cc1 (stereo not drawn) . Reported TCF/Wnt firefly luciferase reporter signal?
Marked response: 0.964

Exam item: Recorded TCF/Wnt firefly luciferase reporter signal for COc1ccc(-c2coc3cc(O)ccc3c2=O)cc1 , please?
Marked response: 0.972

Exam item: What does the data say about its TCF/Wnt firefly luciferase reporter signal? Entry: NCCCC(O)(P(=O)(O)O)P(=O)(O)O
Marked response: 1.02

Exam item: Name the recorded TCF/Wnt firefly luciferase reporter signal for CCOC(=O)[C@@](C)(N)Cc1ccc(O)c(O)c1 .
Marked response: 1.07

Exam item: Query: TCF/Wnt firefly luciferase reporter signal; subject: CCOc1ccc(NC(C)=O)cc1
Marked response: 1.06

Exam item: Any idea what its TCF/Wnt firefly luciferase reporter signal is? The compound is Cc1cc(-c2ncc(CC(=O)Nc3ccc(-c4cnccn4)cn3)cc2C)ccn1
Marked response: 0.847

Exam item: Find the recorded TCF/Wnt firefly luciferase reporter signal belonging to O=c1cc(CO)occ1O and report it.
Marked response: 1.04

Exam item: Name the recorded TCF/Wnt firefly luciferase reporter signal for C1CNCCN1 .
Marked response: 1.05
